Test system: EFM-19 (Breast Carcinoma)
experiment_notes: combination Emax (second highest fraction inhibited in the dose matrix, 72 h); higher = more inhibition; extreme values may be limits of the assay
Would you mind telling me the reported combination Emax of each entry?
Answers are plain numbers.

Answered examples (3):
compound	combination Emax
CC1(C)CCC(CN2CCN(c3ccc(C(=O)NS(=O)(=O)c4ccc(NCC5CCOCC5)c([N+](=O)[O-])c4)c(Oc4cnc5[nH]ccc5c4)c3)CC2)=C(c2ccc(Cl)cc2)C1 [Venetoclax] + Cn1cnc2c(F)c(Nc3ccc(Br)cc3Cl)c(C(=O)NOCCO)cc21 [Selumetinib] (first compound max 1 µM, 7x7, partner max 3 µM)	0.232
CN(C)CCCOc1ccc(-c2ccc3ncc4c(c3c2)n(C2CCOCC2)c(=O)n4C)cn1 [AZD0156] + CCN(CCO)CCCOc1ccc2c(Nc3cc(CC(=O)Nc4cccc(F)c4)[nH]n3)ncnc2c1 [AZD2811] (first compound max 1 µM, 7x7, partner max 1 µM)	0.383
NC1(C(=O)N[C@@H](CCO)c2ccc(Cl)cc2)CCN(c2ncnc3[nH]ccc23)CC1 [Capivasertib] + C[C@@H]1COCCN1C2=NC(=NC(=C2)C3(CC3)[S@](=N)(=O)C)C4=C5C=CNC5=NC=C4 [AZD6738] (first compound max 10 µM, 7x7, partner max 10 µM)	0.526

# batch: return combination Emax for each of the 5 compounds below
1. CCN(CCO)CCCOc1ccc2c(Nc3cc(CC(=O)Nc4cccc(F)c4)[nH]n3)ncnc2c1 [AZD2811] + C[C@@H]1COCCN1C2=NC(=NC(=C2)C3(CC3)[S@](=N)(=O)C)C4=C5C=CNC5=NC=C4 [AZD6738] (first compound max 1 µM, 7x7, partner max 10 µM)
2. Cn1cnc2c(F)c(Nc3ccc(Br)cc3Cl)c(C(=O)NOCCO)cc21 [Selumetinib] + C=CCn1c(=O)c2cnc(Nc3ccc(N4CCN(C)CC4)cc3)nc2n1-c1cccc(C(C)(C)O)n1 [AZD1775] (first compound max 10 µM, partner max 1 µM)
3. Cc1cc2ncnn2cc1Nc1ncc2c(n1)n(C1CCOCC1)c(=O)n2C [AZD7648] + C[C@@H]1COCCN1C2=NC(=NC(=C2)C3(CC3)[S@](=N)(=O)C)C4=C5C=CNC5=NC=C4 [AZD6738] (first compound max 10 µM, 7x7, partner max 10 µM)
4. Cc1c2c(nn1C)CSCc1cc(n(C)n1)CSc1cc(c3ccccc3c1)OCCCc1c(C(=O)O)n(C)c3c-2c(Cl)ccc13 [AZD5991] + Nc1ccn([C@@H]2O[C@H](CO)[C@@H](O)C2(F)F)c(=O)n1 [Gemcitabine] (first compound max 1 µM, 7x7, partner max 0.3 µM)
5. CN(CCO)CC[C@H](CSc1ccccc1)Nc1ccc(S(=O)(=O)NC(=O)c2ccc(N3CCC([C@@H](O)c4ccccc4-c4ccc(Cl)cc4)CC3)cc2)cc1S(=O)(=O)C(F)(F)F [AZD4320] + C=CCn1c(=O)c2cnc(Nc3ccc(N4CCN(C)CC4)cc3)nc2n1-c1cccc(C(C)(C)O)n1 [AZD1775] (first compound max 1 µM, partner max 1 µM)

Given back:
[0.355, 0.321, 0.541, 0.573, 0.716]

Cited source: the supplement of paper PMC11061612
